Species: Rattus norvegicus
procedure.text: DrugMatrix - Regimen: Daily Repeat
Type: toxicity, organism-based, Sprague-Dawley
Parameters: regimen Daily Repeat, gender Male, age 6-8 weeks
condition: in vivo, po, 0 mg/kg, 120 h, tissue Blood, route oral GAVAGE, dose level Control, time 5 day, […]
Reported ERYTHROCYTE COUNT values are given for each entry in this list.
# value in x10E6/uL; strip the unit string

Below, 3 molecules whose answers are already recorded.
>>> readout_number("O=C(Nc1ccc(Cl)c(Cl)c1)c1cc(Cl)cc(Cl)c1O [3,3',4',5-TETRACHLOROSALICYLANILIDE]")
5.82
>>> readout_number("CCOC(=O)C1=C(C)NC(C)=C(C(=O)OCC)C1c1ccccc1/C=C/C(=O)OC(C)(C)C")
5.61
>>> readout_number("COc1ccccc1OCCNCC(O)COc1cccc2[nH]c3ccccc3c12 (centres undefined)")
5.74

Okay, now this molecule:
Identify measured ERYTHROCYTE COUNT associated with Cc1cccc(C)c1NC(=O)C(C)N (centres undefined) [TOCAINIDE]
5.25
